Tissue distribution, Spleen: recorded values
# conditionNotes: 4 hours after injection, i.v., Balb/C mice, +/- SD
Write the quantity with the unit trailing the number.

Please review the following examples before continuing.
compound	Tissue distribution, Spleen
O=P([O-])(O)CN1CCN(CP(=O)([O-])O)CCN(CP(=O)([O-])O)CCN(CP(=O)([O-])O)CC1.[227Th+4] [Th-227 DOTMP]	0.51 ± 0.14 % I.D./g
O=P([O-])(O)CN(CCN(CP(=O)([O-])O)CP(=O)([O-])O)CCN(CP(=O)([O-])O)CP(=O)(O)O.[227Th+4] [Th-227 DTMP]	0.13 ± 0.04 % I.D./g
O=P([O-])(O)CN1CCN(CP(=O)([O-])O)CCN(CP(=O)(O)O)CCN(CP(=O)([O-])O)CC1.[228Ac+3] [Ac-228 DOTMP]	0.51 ± 0.10 % I.D./g

Now look at this one.
[in] Please report the recorded Tissue distribution, Spleen for CC(=O)[O-].CC(=O)[O-].CC(=O)[O-].CC(=O)[O-].[227Th+4] [^227Th-acetate, reference compound] .
[out] 14.2 ± 2.8 % I.D./g

----------
# conditionNotes: 4 hours after injection, i.v., Balb/C mice, +/- SD
# Description: The biodistribution of thorium and actinium bound to polyphosphonate was studied in mice. Balb/C mice with a bodyweight in the range of 11–16 g were used in the biodistribution experiments. […] The tissue distribution was determined on 3 mice for each pair of compounds. The tissue distribution was determined after 4 hours for ^228Ac-DOTMP, ^227Th-DOTMP, ^227Th-DTMP and ^227Th-acetate. […]
testReadout: Tissue distribution, Skull (% I.D./g)
Give your result in % I.D./g as a bare value.

Please review the following examples before continuing.
compound	Tissue distribution, Skull [% I.D./g]
O=P([O-])(O)CN1CCN(CP(=O)([O-])O)CCN(CP(=O)([O-])O)CCN(CP(=O)([O-])O)CC1.[227Th+4]	10.8
CC(=O)[O-].CC(=O)[O-].CC(=O)[O-].CC(=O)[O-].[227Th+4] [^227Th-acetate, reference compound]	18.9
O=P([O-])(O)CN(CCN(CP(=O)([O-])O)CP(=O)([O-])O)CCN(CP(=O)([O-])O)CP(=O)(O)O.[227Th+4]	12.3

Now look at this one.
[in] Please report the recorded Tissue distribution, Skull for O=P([O-])(O)CN1CCN(CP(=O)([O-])O)CCN(CP(=O)(O)O)CCN(CP(=O)([O-])O)CC1.[228Ac+3] .
[out] 10.7

----------
# conditionNotes: 4 hours after injection, i.v., Balb/C mice, +/- SD
testReadout: Tissue distribution, Femur (% I.D./g)
Give your result in % I.D./g as a bare value.

compound	resultUnits	valueObserved
O=P([O-])(O)CN1CCN(CP(=O)([O-])O)CCN(CP(=O)(O)O)CCN(CP(=O)([O-])O)CC1.[228Ac+3]	% I.D./g	20.67
CC(=O)[O-].CC(=O)[O-].CC(=O)[O-].CC(=O)[O-].[227Th+4] [^227Th-acetate, reference compound]	% I.D./g	23.4
O=P([O-])(O)CN(CCN(CP(=O)([O-])O)CP(=O)([O-])O)CCN(CP(=O)([O-])O)CP(=O)(O)O.[227Th+4]	% I.D./g	19.58

Now look at this one.
[in] Please report the recorded Tissue distribution, Femur for O=P([O-])(O)CN1CCN(CP(=O)([O-])O)CCN(CP(=O)([O-])O)CCN(CP(=O)([O-])O)CC1.[227Th+4] .
[out] 20.55
